// reported pIC50 for each item listed
# assay.target: SARS-CoV-2 Papain-Like Protease (PLpro) (Severe acute respiratory syndrome coronavirus 2 (2019-nCoV) (SARS-CoV-2), UniProt P0DTD1)
# assay.procedure: biochemical
# experimental.parameters: SARS-CoV-2 PLpro enzymatic fluorescence assay; read-out: PLpro IC50
pIC50: −log10 of the molar value.
result.type: pIC50

>  <molecule>
CNCc1nc2cc(C)c(C(=O)NC3(c4cccc5ccccc45)CC3)cc2o1 [Compound 426]

>  <result.value>
6.00 to 7.00

$$$$
>  <molecule>
Cc1ccc(OCCN(C)C)cc1C(=O)NC1(c2cccc(-c3ccccc3)c2C)CC1 [Compound 340]

>  <result.value>
6.00 to 7.00

$$$$
>  <molecule>
C=Cc1cc(C2(NC(=O)c3cc(OC[C@@H]4CCCN4)ccc3C)CC2)c2cccnc2c1 [Compound 713]

>  <result.value>
> 7.00

$$$$
>  <molecule>
Cc1cc2c(cc1C(=O)NC1(c3cccc4ccccc34)CC1)N1C(=O)NCC1C2 (centres unmarked) [Compound 194]

>  <result.value>
5.30 to 6.00

$$$$
>  <molecule>
CNCC1Cc2cc(C)c(C(=O)NC3(c4cccc5ccccc45)CC3)cc2N1 (centres unmarked) [Compound 231]

>  <result.value>
> 7.00

$$$$
>  <molecule>
COc1cc(C2(NC(=O)c3cc(OC[C@@H]4CCN4C)ccc3C)CC2)c2ccccc2n1 [Compound 555]

>  <result.value>
> 7.00

$$$$
>  <molecule>
Cc1cc2ccn(CCN)c2cc1C(=O)NC1(c2cccc3ccccc23)CC1 [Compound 203]

>  <result.value>
6.00 to 7.00

$$$$
>  <molecule>
Cc1ccc(OC[C@H]2CCCN2C)cc1C(=O)NC1(c2cccc3ncccc23)CC1 [Compound 382]

>  <result.value>
> 7.00

$$$$

---

# assay.target: SARS-CoV-2 Papain-Like Protease (PLpro) (Severe acute respiratory syndrome coronavirus 2 (2019-nCoV) (SARS-CoV-2), UniProt P0DTD1)
# assay.procedure: biochemical
# experimental.parameters: SARS-CoV-2 PLpro enzymatic fluorescence assay; read-out: PLpro IC50
Examples of compounds with documented IC50 follow.

>  <compound>
COc1ccnc(COc2ccc(C)c(C(=O)NC3(c4cc(OC)cc5ncccc45)CC3)c2)c1

>  <IC50>
0.1 to 1 µM

$$$$
>  <compound>
Cc1cc2c(cc1C(=O)NC1(c3cccc4ccccc34)CC1)NC(=O)C2(C)C

>  <IC50>
1 to 5 µM

$$$$
>  <compound>
Cc1ccc(OCCN(C)C)cc1C(=O)NC1(c2cccc3ccccc23)CC1

>  <IC50>
< 0.1 µM

$$$$
>  <compound>
Cc1ccc(OC2CC(N)C2)cc1C(=O)NC1(c2cccc3ccccc23)CC1 (stereo not shown)

>  <IC50>
0.1 to 1 µM

$$$$

---

# assay.target: SARS-CoV-2 Papain-Like Protease (PLpro) (Severe acute respiratory syndrome coronavirus 2 (2019-nCoV) (SARS-CoV-2), UniProt P0DTD1)
# assay.procedure: biochemical
# experimental.parameters: PLpro enzymatic fluorescence assay; class symbols; read-out: PLpro IC50
pIC50: −log10 of the molar value.
This listing pairs compounds with measured pIC50.
result.type: pIC50

>  <compound>
COCCOc1cc(C2(NC(=O)c3cc(OC[C@@H]4CCN4C)ccc3C)CC2)c2cccnc2c1

>  <result.value>
> 7.00

$$$$
>  <compound>
Cc1ccc(OC[C@@H]2CCN2C)cc1C(=O)NC1(c2cc(N3CCCC3)cc3ncccc23)CC1

>  <result.value>
> 7.00

$$$$
>  <compound>
Cc1ccc(-c2cc(C3(NC(=O)c4cc(OC[C@@H]5CCN5C)ccc4C)COC3)c3cccnc3c2)o1

>  <result.value>
> 7.00

$$$$
>  <compound>
C=C(C)c1cc(C2(NC(=O)c3cc(OC[C@@H]4CCCN4)ccc3C)CC2)c2cccnc2c1

>  <result.value>
> 7.00

$$$$
>  <compound>
Cc1ccc(OCCN(C)C)cc1C(=O)NC1(c2cccc(O)c2)CC1

>  <result.value>
< 5.30

$$$$
>  <compound>
Cc1ncc(-c2cc(C3(NC(=O)c4cc(OC[C@@H]5CCN5C)ccc4C)CC3)c3cccnc3c2)o1

>  <result.value>
> 7.00

$$$$
>  <compound>
C=CCc1cc(C2(NC(=O)c3cc(OCC4CCN4C)ccc3C)CC2)c2ccccc2c1 (stereo not drawn)

>  <result.value>
> 7.00

$$$$
>  <compound>
COc1cc(C2(NC(=O)c3cc(OC[C@H]4C[C@H](F)CN4)ccc3C)CC2)c2cccnc2c1

>  <result.value>
> 7.00

$$$$
>  <compound>
Cc1cc(-c2cc(C3(NC(=O)c4cc(OC[C@@H]5CCN5)ccc4C)CC3)c3cccnc3c2)cs1

>  <result.value>
> 7.00

$$$$
>  <compound>
CNCCOc1ccc(C)c(C(=O)NC2(c3cc(-c4ccn(C)n4)cc4ncccc34)CC2)c1

>  <result.value>
> 7.00

$$$$
>  <compound>
Cc1ccc(OC[C@@H]2CCN2C)cc1C(=O)NC1(c2cc(-c3ncccn3)cc3ncccc23)CC1

>  <result.value>
> 7.00

$$$$
>  <compound>
Cc1ccc(OC[C@@H]2CCN2C)cc1C(=O)NC1(c2cc(-c3ccc4nccn4c3)cc3ncccc23)CC1

>  <result.value>
> 7.00

$$$$
>  <compound>
CCOc1cc(C2(NC(=O)c3cc(OCC4CCN4C)ccc3C)CC2)c2ccccc2c1 (stereo not drawn)

>  <result.value>
> 7.00

$$$$
>  <compound>
Cc1ccc(OC[C@@H]2CCN2)cc1C(=O)NC1(c2cc(-c3ccc(F)c(Cl)c3)cc3ncccc23)CC1

>  <result.value>
> 7.00

$$$$
>  <compound>
Cc1cc(-c2cc(C3(NC(=O)c4cc(OC[C@@H]5CCN5C)ccc4C)CC3)c3cccnc3c2)c(C)o1

>  <result.value>
> 7.00

$$$$

---

# assay.target: SARS-CoV-2 Papain-Like Protease (PLpro) (Severe acute respiratory syndrome coronavirus 2 (2019-nCoV) (SARS-CoV-2), UniProt P0DTD1)
# assay.procedure: biochemical
# experimental.parameters: PLpro enzymatic fluorescence assay; class symbols; read-out: PLpro IC50
pIC50: −log10 of the molar value.

>  <compound>
[2H]C1([2H])C([2H])([2H])C1(NC(=O)c1cc(OC[C@@H]2CCN2C)ccc1C)c1cc(OC)cc2ncccc12 [Compound 794]

>  <pIC50>
> 7.00

$$$$
>  <compound>
Cc1ccc(NC2CN(C(=O)OC(C)(C)C)C2)cc1C(=O)NC(C)c1cccc2c1CCCC2 (stereo not shown) [Compound 181]

>  <pIC50>
< 5.30

$$$$
>  <compound>
CCCc1cc(C2(NC(=O)c3cc(OCC4CCN4C)ccc3C)CC2)c2ccccc2c1 (stereo not shown) [Compound 504]

>  <pIC50>
> 7.00

$$$$
>  <compound>
Cc1ccc(OCC2CCN2C)cc1C(=O)NC1(c2nccc3ccccc23)CC1 (stereo not shown) [Compound 454]

>  <pIC50>
6.00 to 7.00

$$$$
>  <compound>
Cc1ccc(-c2cc(C3(NC(=O)c4cc(OC[C@@H]5CCN5)ccc4C)CC3)c3cccnc3c2)o1 [Compound 646]

>  <pIC50>
> 7.00

$$$$
>  <compound>
Cc1ccc(OC[C@@H]2CCN2C)cc1C(=O)NC1(c2cc(-n3cccn3)cc3ncccc23)CC1 [Compound 619]

>  <pIC50>
> 7.00

$$$$
>  <compound>
Cc1ccc(OC[C@@H]2CCN2C)cc1C(=O)NC1(c2cc(-c3ccco3)cc3ncccc23)CC1 (stereo in doubt) [Compound 604]

>  <pIC50>
> 7.00

$$$$

---

Consider the following molecules and their measured pIC50 readings.
# assay.target: UniProtKB P0DTD1
# assay.procedure: biochemical
# experimental.parameters: SARS-CoV-2 PLpro enzymatic fluorescence assay; read-out: PLpro IC50
pIC50: −log10 of the molar value.

>  <molecule>
Cc1ccc(OC[C@H]2C[C@H](F)CN2C)cc1C(=O)NC1(c2cccc3ccccc23)CC1 (single isomer, unassigned) [Compound 441]

>  <pIC50>
> 7.00

$$$$
>  <molecule>
Cc1cc(C2(NC(=O)c3cc(OC[C@@H]4CCN4C)ccc3C)CC2)c2cccnc2c1 [Compound 581]

>  <pIC50>
> 7.00

$$$$
>  <molecule>
Cc1ccc(N2CCCNCC2)cc1C(=O)NC1(c2cccc3ccccc23)CC1 [Compound 411]

>  <pIC50>
> 7.00

$$$$
>  <molecule>
Cc1ccc(OC[C@H]2C[C@H](O)CN2)cc1C(=O)NC1(c2cccc3ccccc23)CC1 [Compound 414]

>  <pIC50>
> 7.00

$$$$
>  <molecule>
Cc1ccc(OCCN(C)C)cc1C(=O)NC1(c2cccc(C)c2Br)CC1 [Compound 317]

>  <pIC50>
6.00 to 7.00

$$$$
>  <molecule>
Cc1ccc(OC[C@@H]2CCN2C)cc1C(=O)NC1(c2cccc3ncccc23)CC1 [Compound 391]

>  <pIC50>
> 7.00

$$$$
>  <molecule>
Cc1cc2cn[nH]c2cc1C(=O)NC1(c2cccc3ccccc23)CC1 [Compound 176]

>  <pIC50>
6.00 to 7.00

$$$$
>  <molecule>
CN(C)CCOc1ccc(C2CC2)c(C(=O)NC2(c3cccc4ccccc34)CC2)c1 [Compound 353]

>  <pIC50>
< 5.30

$$$$
>  <molecule>
Cc1ccc(CCC2CCN2C)cc1C(=O)NC1(c2cccc3ccccc23)CC1 (centres unmarked) [Compound 455]

>  <pIC50>
> 7.00

$$$$
>  <molecule>
CNCc1cc2cc(C)c(C(=O)NC3(c4cccc5ccccc45)CC3)cc2[nH]1 [Compound 221]

>  <pIC50>
> 7.00

$$$$
>  <molecule>
Cc1cc2ccn(C3CCC3)c2cc1C(=O)NC1(c2cccc3ccccc23)CC1 [Compound 296]

>  <pIC50>
6.00 to 7.00

$$$$
>  <molecule>
COc1cc(C2(NC(=O)c3cc(OC[C@@H]4CCCN4)ccc3C)CC2)c2cccnc2c1 [Compound 462]

>  <pIC50>
> 7.00

$$$$
>  <molecule>
Cc1cnc(OCCN(C)C)cc1C(=O)NC1(c2cccc3ccccc23)CC1 [Compound 366]

>  <pIC50>
6.00 to 7.00

$$$$
>  <molecule>
Cc1cc2cc(CN3CCOCC3)[nH]c2cc1C(=O)NC1(c2cccc3ccccc23)CC1 [Compound 213]

>  <pIC50>
5.30 to 6.00

$$$$
>  <molecule>
COc1cc(C2(NC(=O)c3cc(OCCN(C)C)ccc3C)CC2)c2cccnc2c1 [Compound 434]

>  <pIC50>
> 7.00

$$$$
>  <molecule>
Cc1ccc(OCCN(C)C)cc1C(=O)NC1(c2cncc3ccccc23)CC1 [Compound 409]

>  <pIC50>
> 7.00

$$$$
>  <molecule>
Cc1ccc(N)cc1CN[C@H](C)c1cccc2ccccc12 [Compound 106]

>  <pIC50>
< 5.30

$$$$
